# Test system: SR leukemia
# Experiment Summary: NCI-60 one-dose screen, 48 h
# Applied Conditions: 10 µM unless noted
This is part of a sample that, as a whole, favours compounds with a hit. Of some 83,000 tested, about 20% had one in any assay. Calls of active or inactive are those of the source. The calls were made as follows: active = growth percent below 10; inactive = the rest.
Parameter call: string, one of 1 for active, 0 for inactive

| Molecule | Qualitative Label |
| --- | --- |
| CN(C)CCN1CCN(c2ncccc2C2Nc3ccccc3-n3cccc32)CC1 (stereo not drawn) | 0 |
| COc1ccc(C(Cc2ccccc2)NCCN2CCOCC2)cc1 (stereo not drawn) | 0 |
| O=S(=O)(Nc1ccc(-c2nc(-c3cccc(OCCN4CCOCC4)c3)c(-c3ccnc(Br)c3)[nH]2)cc1)c1ccccc1 | 1 |
| O=C1c2ccccc2NC(n2sc3ccccc3c2=O)N1c1ccccc1 (stereo not drawn) | 0 |
| Nc1nn(C(=O)Nc2ccc(Cc3ccccc3)cc2)c2ccc(Cl)cc12 | 0 |

Turning to the following molecule.
Input line: Outcome? O=c1n(Cc2ccc3ccccc3c2)ccn1Cc1ccc2ccccc2c1
Output line: 0
